Target: PI3Kδ (p110δ/p85α) (Homo sapiens, UniProt O00329)
Sequence (O00329 whole entry): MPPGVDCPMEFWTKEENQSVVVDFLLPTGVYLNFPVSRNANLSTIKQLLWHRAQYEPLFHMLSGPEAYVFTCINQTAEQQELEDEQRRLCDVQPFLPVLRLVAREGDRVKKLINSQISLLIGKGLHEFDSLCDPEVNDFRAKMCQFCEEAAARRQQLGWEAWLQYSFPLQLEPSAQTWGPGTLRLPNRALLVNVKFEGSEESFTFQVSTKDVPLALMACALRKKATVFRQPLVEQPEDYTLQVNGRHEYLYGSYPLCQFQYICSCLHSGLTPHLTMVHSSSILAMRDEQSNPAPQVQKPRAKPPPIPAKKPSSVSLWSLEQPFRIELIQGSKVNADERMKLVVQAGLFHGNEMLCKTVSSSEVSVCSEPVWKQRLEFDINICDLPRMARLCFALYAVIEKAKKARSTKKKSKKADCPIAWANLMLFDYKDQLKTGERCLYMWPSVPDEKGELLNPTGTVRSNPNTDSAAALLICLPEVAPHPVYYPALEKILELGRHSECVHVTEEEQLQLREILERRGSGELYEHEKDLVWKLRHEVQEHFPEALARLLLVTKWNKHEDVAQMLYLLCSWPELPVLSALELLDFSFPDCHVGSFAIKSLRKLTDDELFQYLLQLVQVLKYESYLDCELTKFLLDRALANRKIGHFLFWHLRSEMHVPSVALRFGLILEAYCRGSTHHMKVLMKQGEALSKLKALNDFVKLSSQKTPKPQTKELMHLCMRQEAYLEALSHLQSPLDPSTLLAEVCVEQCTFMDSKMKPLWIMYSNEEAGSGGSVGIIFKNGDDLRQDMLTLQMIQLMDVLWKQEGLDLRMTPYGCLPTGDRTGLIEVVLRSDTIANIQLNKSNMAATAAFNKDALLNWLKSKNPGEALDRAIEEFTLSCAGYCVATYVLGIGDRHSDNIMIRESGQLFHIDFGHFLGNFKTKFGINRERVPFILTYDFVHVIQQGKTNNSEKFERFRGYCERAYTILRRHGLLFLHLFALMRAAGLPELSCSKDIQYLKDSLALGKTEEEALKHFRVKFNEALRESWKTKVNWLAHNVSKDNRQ
Sequence (P27986 whole entry partner): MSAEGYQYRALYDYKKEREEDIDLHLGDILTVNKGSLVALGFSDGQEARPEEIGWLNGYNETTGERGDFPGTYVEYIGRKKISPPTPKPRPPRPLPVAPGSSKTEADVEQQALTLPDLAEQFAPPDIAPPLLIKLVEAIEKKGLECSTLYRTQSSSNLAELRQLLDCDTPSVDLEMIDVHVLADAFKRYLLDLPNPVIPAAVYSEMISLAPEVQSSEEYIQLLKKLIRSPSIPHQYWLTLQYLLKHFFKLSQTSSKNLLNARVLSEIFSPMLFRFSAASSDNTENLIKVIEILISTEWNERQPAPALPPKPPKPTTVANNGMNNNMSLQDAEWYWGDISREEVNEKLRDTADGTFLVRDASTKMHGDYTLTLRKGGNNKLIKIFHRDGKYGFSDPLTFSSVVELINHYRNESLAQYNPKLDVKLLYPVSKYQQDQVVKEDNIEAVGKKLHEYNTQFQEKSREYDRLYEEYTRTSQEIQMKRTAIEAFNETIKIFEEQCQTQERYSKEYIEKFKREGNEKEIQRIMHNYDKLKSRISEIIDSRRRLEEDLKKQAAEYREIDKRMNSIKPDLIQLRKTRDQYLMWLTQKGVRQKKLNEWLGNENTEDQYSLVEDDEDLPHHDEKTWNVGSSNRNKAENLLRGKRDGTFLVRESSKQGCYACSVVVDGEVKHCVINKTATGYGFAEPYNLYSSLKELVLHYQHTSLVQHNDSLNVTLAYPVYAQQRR
Assay: PI3Kδ scintillation proximity assay (assay A)
Settings: 20 μM PIP2, 20 μM ATP, 4 nM PI3Kδ, 210 minutes, room temperature
metric name: IC50

[[record]]
compound = "CC(Nc1ncnc2[nH]cnc12)c1cc(Cl)c2cncn2c1N1CC[C@@H](O)C1 (stereo partly drawn)"
result = "50 to 200 nM"

[[record]]
compound = "CC(Nc1ncnc2[nH]cnc12)c1cc(Cl)c2cncn2c1N1CCN(CC#N)CC1 (stereo not drawn)"
result = "50 to 200 nM"

[[record]]
compound = "CO[C@@H]1CCN(c2c(C(C)Nc3ncnc4[nH]cnc34)cc(Cl)c3cncn23)C1 (stereo partly drawn)"
result = "< 50 nM"


From: patent US9193721B2
